This collection of values is drawn from ChEMBL document CHEMBL1201862.

- system: UniProtKB Q6QLK5
- Sequence (Q6QLK5 whole entry, the tested form may be a part): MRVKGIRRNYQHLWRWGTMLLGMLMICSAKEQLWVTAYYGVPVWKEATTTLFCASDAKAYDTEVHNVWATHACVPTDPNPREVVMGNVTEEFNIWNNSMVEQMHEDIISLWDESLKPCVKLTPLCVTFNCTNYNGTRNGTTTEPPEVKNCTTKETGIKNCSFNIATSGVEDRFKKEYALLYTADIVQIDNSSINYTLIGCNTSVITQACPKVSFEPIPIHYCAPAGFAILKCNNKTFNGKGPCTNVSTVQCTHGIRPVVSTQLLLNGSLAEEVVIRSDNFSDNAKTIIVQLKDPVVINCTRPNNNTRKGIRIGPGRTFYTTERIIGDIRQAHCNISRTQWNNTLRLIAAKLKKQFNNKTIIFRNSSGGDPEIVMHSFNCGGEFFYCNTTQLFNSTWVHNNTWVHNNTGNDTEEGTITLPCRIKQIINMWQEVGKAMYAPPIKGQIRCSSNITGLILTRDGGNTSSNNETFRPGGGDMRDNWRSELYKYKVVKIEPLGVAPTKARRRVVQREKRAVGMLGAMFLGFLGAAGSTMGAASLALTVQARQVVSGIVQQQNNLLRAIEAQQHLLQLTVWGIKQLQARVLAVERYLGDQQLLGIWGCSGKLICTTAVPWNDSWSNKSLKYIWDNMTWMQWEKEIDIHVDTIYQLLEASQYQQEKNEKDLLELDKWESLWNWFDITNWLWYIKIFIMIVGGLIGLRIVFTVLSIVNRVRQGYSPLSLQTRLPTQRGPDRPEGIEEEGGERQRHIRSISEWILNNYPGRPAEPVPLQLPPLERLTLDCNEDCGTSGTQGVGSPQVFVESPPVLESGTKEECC
- experimentDescription: cell-free HIV fusion peptide-binding blockers – biochemical, uHTS, fluorescence dequenching, […] (AID 1986)
Activity calls are given as the source filed them. Cut-off read from the data, not from the text of the source: actives have a measured IC50 and inactives only a lower limit.
Listed molecules paired with reported IC50
measuredAttribute: IC50

{"molecule": "COc1cc(C(=O)Nc2scc(-c3ccc(Br)cc3)c2C(=O)O)cc(OC)c1OC", "measuredAttribute": "IC50", "result": "33.2 µM (active)"}
{"molecule": "O=C(N/N=C/c1cc(Br)c(O)c(Br)c1)c1cc2c(ccc3ccccc32)o1", "measuredAttribute": "IC50", "result": "15 µM (active)"}
{"molecule": "CC(/C=C1\\SC(=S)N(C(C(=O)O)c2ccccc2)C1=O)=C\\c1ccccc1 (centres undefined)", "measuredAttribute": "IC50", "result": "46 µM (active)"}
{"molecule": "COc1ccc(C(=O)Oc2ccc(/C=N/Nc3ccc(Cl)c(C(=O)O)c3)cc2OC)cc1", "measuredAttribute": "IC50", "result": "19.3 µM (active)"}
